target: MERS FP peptide (MERS), K9N5Q8; test: peptide ELISA
Sequence (K9N5Q8 884-903 limits assumed): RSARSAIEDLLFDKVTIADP
Entries annotated with measured EC50
measuredParameter: EC50 (µg/mL)

binder	unitLabel	value
fp.002 (antibody, V domains shown) VH: VQLVESGGGVVQPGTSLRLSCAGSGFNFDNYAIHWVRQAPGQGLEWVAIISYEARNKKYAGSVTGRFSISRDNSKSMVYLQMDSLRGEDTAVYYCARDLFLSDYDRSGYDPTRGGFDLWGQGTLVTVSS VL: EIVMTQSPATLSVSPGERATLSCRASQSVSSSLAWYQHKLGQAPRLLIYGASTRATGIPGRFSGSGSGTEFTLTISSLQSEDVAIYYCQQYGDWPLVTFGGGTKVEIK	µg/mL	0.0358
fp.010 (antibody, V domains shown) VH: EVQLLESGGGLVQPGGSLRLSCAASGFTFSTYAMNWVRQAPGKGLEWVSAISSSGLSTQYADSVRGRFTISRDTSKNTLYLHMNSLRAGDTAVYYCAKVEYSGYDPRGPFDSWGQGTLVTVSS VL: DIQMTQSPSTLSASVGDRVTITCRASQSISGWLAWYQQKPGRAPKLLIYKASSLERGVPSRFSGSGSGTEFTLTISSLQPDDFATYYCQEYSSYPLCTFGQGTKLEIK	µg/mL	0.0593
fp.011 (antibody, V domains shown) VH: EVQLLESGGGLVQPGGSLRLSCAGSGFTFNNYAMTWVRQAPGRGLEWVSAISGSGGSSHYADSVKGRFTITRDNSKNTLYLQMNSLRAEDTAVYYCAFIDYYSGWSYYYGLDVWGQGTTVTVSS VL: EIVLTQSPATLSLSPGERATLSCRASQGVRTYVAWYQQKPGQAPRLLIYDASNRATGIPARFSGSGSGTDFTLTISSLEPEDFAVYYCQQRYNWPLCSFGQGTKLEIK	µg/mL	0.0363
fp.008 (antibody, V domains shown) VH: VQLVESGGGVVQPGRSLRLSCRASGFRFNNYAMHWVRQAPGKGLEWVAIISYEARNEKYAASVKGRFSISRDNAKNTLYLQMNSLRPEDTAIYYCARDVFLSDYDQSGYDVTRGGFDYWGQGTLVTVSS VL: EIVMTQSPATLSVSPGESATLSCRASQSVSSSLAWYQHKFGQAPRLLIYGASTRATGIPDRFSGSGSGMEFTLTISSLQSEDVAIYYCQQYGDWPLVTFGGGTKVEIK	µg/mL	0.0361
fp.009 (antibody, V domains shown) VH: VQLVESGGGVVQPGTSLTLSCEASGFTFSNYAMHWVRQAPGKGLEWVAIISFDTRNKKFAGSVQGRFSISRDNAKNSIYLQMNNLRPEDTGIYYCARDVFLSDYDSRGFDRTRGGFDYWGQGTLVTVSS VL: EIVMTQSPATLSVSPGEKATLSCRASESVGSSLAWYQQKLGQAPRLLIYGASTRATGIPARFSGSGSGAEFTLTISSLQSEDFAIYYCQQYGDWPLLTFGGGTKVEIK	µg/mL	0.0346
